I'd be grateful if you could share measured growth inhibition for these entries.
protocol.notes: NCI Yeast Anticancer Drug Screen. Data for the cln2 rad14 strain (AID 165);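 also: 0% = growth equal to vehicle treated cultures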
stated.conditions: S. cerevisiae cln2 rad14 strain, at 50.0 µM, active compounds read high
Method: Growth inhibition of yeast strains with defined genetic alterations is measured as a screen for potential anti-cancer activity. Selected strains with alterations in DNA damage repair or cell cycle control were exposed to compounds and growth inhibition was measured relative to vehicle treated controls. The strain used in this assay is cln2 rad14
About 79,000 compounds went through this panel and 15% of them were active in at least one assay; those are over-represented in the sample as a whole.
I only need the number, in %, no unit after it.

For CCCCN(CCCC)CC(O)c1cc(-c2ccc(Cl)cc2)nc2c(Cl)cccc12 (stereo unspecified) , what is its reported growth inhibition?
98.5

Requested field: growth inhibition. Item: `Cc1cccc(Cl)c1NC(=O)/C=C/c1ccccc1`
-1.6

Could you tell me which growth inhibition is on file for `NC(=O)c1cccn1Cc1ccccc1SSc1ccccc1Cn1cccc1C(N)=O` ?
90.9

# growth inhibition lookup, item CS(=O)(=O)OC1C(O)C(n2cnc3c(N)ncnc32)C(O)C(OS(C)(=O)=O)C1OS(C)(=O)=O (stereo unspecified)
-7.9

Look up growth inhibition for this compound: `CC[Si](CC)(CC)c1ccc(CCNCCS)s1`
98

I am curious: what growth inhibition value has been reported for `COc1ccc(C(=O)Nc2ccc(Cl)cc2)cc1` ?
44.2
